system: HOP-62; experiment: NCI tumour cell line growth inhibition, 48 h
Calls of active or inactive are those of the source. Cut-off read from the data, not from the text of the source: active = GI50 up to about 1.1 µM and inactive = higher.
Outcome codes: 1 (yes) for active, 0 (no) for inactive

compound=Oc1nc2c(c(-c3ccccc3Cl)n1)COC/C2=C\c1ccccc1Cl qualitative_label="0 (no)"
compound=CC(C)(O)CCc1ccc(O)c2c(=O)c3c(O)c4c(cc3oc12)O[C@H]1OC=C[C@@]41O qualitative_label="1 (yes)"
compound="CCCOC(=O)C1CCC(=O)N1C(=O)C(Cl)Cl (stereo not drawn)" qualitative_label="0 (no)"
compound="CN(C)c1ccc(C(Cc2ccccc2)C2NC(=S)NC2=O)cc1 (stereo not drawn)" qualitative_label="0 (no)"
compound=c1ccc2cc(-c3cc4ccccc4s3)ccc2c1 qualitative_label="0 (no)"
compound="O=C(NCCCCCCNC(=O)n1cc(F)c(=O)[nH]c1=O)NCCCOCCOCCOCCOCCOCCOCCOCCOCCOCCOCCOCCOCCOCCOCCOCCOCCOCCOCCOCCOCCOCCCNC(=O)C(O)C(O)C(O)C(O)CO (stereo not drawn)" qualitative_label="0 (no)"
compound=c1ccc2/c3[nH]/c(c2c1)=N\c1ccc(cc1)-c1nc2ccc(cc2o1)/N=c1/[nH]/c(c2ccccc12)=N/c1ccc2nc(oc2c1)-c1ccc(cc1)\N=3 qualitative_label="0 (no)"
compound="C=CCC1CC(n2cc(C)c(=O)[nH]c2=O)OC1CO[Si](C)(C)C(C)(C)C (stereo not drawn)" qualitative_label="0 (no)"
